Measured Ratio rCT/rAmylin binding by item
Molecular target: T1, rat calcitonin receptor (rat, UniProt P32214 25-516)
T1 construct: whole, on cells; Cell membranes of transiently transfected BHK tk'ts 13 cells (Assay VIII); also called rCTR; rCT
T1 sequence (looked up): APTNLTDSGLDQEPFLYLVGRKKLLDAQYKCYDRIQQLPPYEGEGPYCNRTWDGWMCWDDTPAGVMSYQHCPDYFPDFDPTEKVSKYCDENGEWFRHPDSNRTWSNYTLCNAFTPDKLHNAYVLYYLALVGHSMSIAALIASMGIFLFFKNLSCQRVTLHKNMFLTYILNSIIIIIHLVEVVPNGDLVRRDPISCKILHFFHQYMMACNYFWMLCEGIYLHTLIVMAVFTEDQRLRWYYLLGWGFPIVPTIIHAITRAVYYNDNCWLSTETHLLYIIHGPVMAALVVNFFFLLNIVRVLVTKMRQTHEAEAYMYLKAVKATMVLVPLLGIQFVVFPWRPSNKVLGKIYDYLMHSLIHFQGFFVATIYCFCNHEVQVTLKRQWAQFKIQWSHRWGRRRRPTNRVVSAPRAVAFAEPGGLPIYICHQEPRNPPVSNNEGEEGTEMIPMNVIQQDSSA
Assay: ratio IC50 rat calcitonin receptor / IC50 rat amylin receptor
Numbered stars: 1 amine (or outer) side, 2 acyl side, 3 side chain; on linkers, the order of the positions; unused ones are H or OH. Bridge positions count the residues as written; N and C are the ends. Side chains are listed from the residue outwards. Ends that are not written are not given here. * marks the point of attachment. C20 diacid = O=C(O)CCCCCCCCCCCCCCCCCCC(=O)*; γGlu = O=C(O)[C@H](CCC(=O)[*:2])N[*:1]; AEEA = NCCOCCOCC(=O)O

# annotated cases, reported Ratio rCT/rAmylin binding shown
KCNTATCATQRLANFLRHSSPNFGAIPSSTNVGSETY (C20 diacid-gGlu on alpha-amino of the N-terminal residue; Cys2-Cys7 disulfide; C-terminal amide (as human amylin), Acylated analogue of human amylin; also called compound 23) [N^α1-[(4S)-4-carboxy-4-(19-carboxynonadecanoylamino)butanoyl]-[Arg17,Pro21,Pro27,Glu35]-h-amylin]
71.3
KCNTATCATQRLANFLRHSSPNFGAIPSSTNVGHNTY (C20 diacid-gGlu on alpha-amino of the N-terminal residue; Cys2-Cys7 disulfide; C-terminal amide (as human amylin), Acylated analogue of human amylin; also called compound 40) [N^α1-[(4S)-4-carboxy-4-(19-carboxynonadecanoylamino)butanoyl]-[Arg17,Pro21,Pro27,His34]-h-amylin]
46.2
K([AEEA-γGlu-C20 diacid])CNTATCATQRLANFLRHSSPNFGAIPPSTPVGSNTY-NH2 (disulfide 2-7, Acylated analogue of human amylin; also called compound 53)
130
KCNTATCATQRLAEFLRHSSPNFGAIPSSTNVGSNTY (C20 diacid-gGlu-2xOEG on alpha-amino of the N-terminal residue; Cys2-Cys7 disulfide; C-terminal amide (as human amylin), Acylated analogue of human amylin; also called compound 19)
93.6
KCNTATCATQRLANFLRHSSPNFGAIPSSTNVGRNTY (C20 diacid-gGlu on alpha-amino of the N-terminal residue; Cys2-Cys7 disulfide; C-terminal amide (as human amylin), Acylated analogue of human amylin; also called compound 39) [N^α1-[(4S)-4-carboxy-4-(19-carboxynonadecanoylamino)butanoyl]-[Arg17,Pro21,Pro27,Arg34]-h-amylin]
54.5
KCNTATCATQRLANFLRHSSPNFGAIPSSTNVGSNTY (C20 diacid-gGlu-2xOEG on alpha-amino of the N-terminal residue; Cys2-Cys7 disulfide; C-terminal amide (as human amylin), Acylated analogue of human amylin; also called compound 24)
116

Continue with the binder presented below.
Quick one: give measured Ratio rCT/rAmylin binding for KCNTATCATQRLANFLRHSSPNFGAIPSSTNVGSKTY (C20 diacid-gGlu on alpha-amino of the N-terminal residue; Cys2-Cys7 disulfide; C-terminal amide (as human amylin), Acylated analogue of human amylin; also called compound 34) [N^α1-[(4S)-4-carboxy-4-(19-carboxynonadecanoylamino)butanoyl]-[Arg17,Pro21,Pro27,Lys35]-h-amylin]
52
